Target: T1, human MSLN-R1-his protein (human, UniProt Q13421 296-390)
T1 construct: Region 1 of human mesothelin, made in HEK293E cells, His-tagged; also called human MSLN-R1 protein; hMSLN-R1-his; not shown: His tag
T1 chain: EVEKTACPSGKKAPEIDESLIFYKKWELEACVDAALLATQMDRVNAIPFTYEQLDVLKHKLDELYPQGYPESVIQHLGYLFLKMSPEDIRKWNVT
Test: ELISA on coated MSLN-R1; no antibody (blank)
Value type: OD450 (OD450)
Answers are plain numbers, in OD450.

Data point: S009-F8-31.22 (antibody, human IgG1, kappa, V domains shown) VH: EVQLVESGGDLVKPGGSLKLSCAASGFTFSTYGMSWVRQTPDKRLEWVATISSGGSYTYYPDSLKGRFTISRDNAKNTLYLQMSSLKSEDTAMYYCARHEGYYYGKDYWGQGTTLTVSS VL: DIVLTQSPATLSVTPGDSVSLSCRASHSISNNLHWYQQKSHESPRLLIKYASQSISGIPSKFSGSGSGTDFTLSINSVETEDFGMYFCQQTNSWPLTFGAGTKLELKR ; OD450 = 0.05

All values here come from patent US20250250357A1.
